Test: Pharmacokinetics in mice (IP, IV, PO)
Assay type: in vivo
Settings: mouse, in vivo; mice, IV 5 mg/kg
Description: FIG. 2A is the pharmacokinetic data of compound 1 administered by intraperitoneal injection (IP) into mice at 10 mg/kg, according to some embodiments of the present disclosure; FIG. 2B is the pharmacokinetic data of compound 1 administered by intravenous injection (IV) into mice at 1 mg/kg and per os (PO) at 5 mg/kg, according to some embodiments of the present disclosure;
READOUT: Tmax
// return the numeric value with its unit appended

Q: Give the value of Tmax reported for the following: C=CC(=O)Nc1cccc(C)c1Nc1cc(-c2cccnc2Nc2c(Cl)c(OC)cc(OC)c2Cl)ncn1 [Compound 5, reference compound]
Ans: 4.98 min
